TARGET_OR_SYSTEM: nLucOGG1 in HeLa cells (Homo sapiens)
Construct: thermal shift read by NanoGlo luminescence
Sequence (O15527 whole entry): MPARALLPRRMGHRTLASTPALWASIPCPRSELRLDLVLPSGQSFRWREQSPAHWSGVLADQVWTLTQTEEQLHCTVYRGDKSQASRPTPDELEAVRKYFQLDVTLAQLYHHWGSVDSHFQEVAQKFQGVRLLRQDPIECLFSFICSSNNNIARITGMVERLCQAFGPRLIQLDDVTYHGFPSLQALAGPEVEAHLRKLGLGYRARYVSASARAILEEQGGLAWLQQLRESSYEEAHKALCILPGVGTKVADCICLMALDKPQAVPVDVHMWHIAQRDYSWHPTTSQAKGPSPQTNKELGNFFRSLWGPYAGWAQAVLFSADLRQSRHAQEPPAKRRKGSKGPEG
TEST_NAME: Cellular Thermal Shift Assay to measure compound affinity for nLucOGG1 in HeLa cells (CETSA DTm)
Type: cell-based
MEASUREMENT_SETUP: 10 μM compound, 37° C. 60 min, Tm vs DMSO control
Protocol: Biological Example 2: Cellular Thermal Shift Assay to Measure Compound Affinity for ^nLucOGG1 in HeLa Cells (CETSA DTm) […] For delta Tm determination, OGG1 inhibitor compounds were dissolved in DMSO to a final working concentration of 20 mM. […] Microplates were then left to shake in the dark for 5 minutes before total luminescence was measured on a SpectraMax IX3 plate reader. […]
OBSERVED_PROPERTY: ΔTm at 10 µM

Record COc1cc(NC(=O)[C@H]2CC[C@@H](N3Cc4c(C)cc(N(C)C)cc4C3=O)CC2)ccc1C [Example 135] . Reported ΔTm at 10 µM: 6 to 8 °C

Record COc1cc(NC(=O)[C@H]2CC[C@@H](N3Cc4c(C)ccc(OC5CNC5)c4NC3=O)CC2)ccc1C [Example 45] . Reported ΔTm at 10 µM: 8 to 10 °C

Record COc1ccc(NC(=O)[C@]2(C)CC[C@H](N3Cc4c(C)ccc(OC)c4NC3=O)CC2)cc1Cl (single isomer, unassigned) [Example 7] . Reported ΔTm at 10 µM: 8 to 10 °C

Record COc1cc(NC(=O)[C@H]2CC[C@@H](N3Cc4ccccc4NC3=O)CC2)ccc1C [Example 67] . Reported ΔTm at 10 µM: 6 to 8 °C

These entries and their values trace back to patent US20260317356A1.
